System Under Test: T1, MS2 bacteriophage coat protein (MS2 bacteriophage, UniProt P03612 2-130)
T1 sequence: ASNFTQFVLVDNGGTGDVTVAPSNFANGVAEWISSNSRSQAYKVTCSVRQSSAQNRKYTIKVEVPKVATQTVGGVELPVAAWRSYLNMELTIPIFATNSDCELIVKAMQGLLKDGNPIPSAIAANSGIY
Method Summary: SPR (Biacore T200), IgG captured on anti-human IgG Fc, MS2 antigen flowed over
For each of the binders below, state its pKd.
Numbers only, as −log10 of the molar value.

Below are 2 binders. Give each one its pKd.
1. APE443 (antibody, V domains shown, also called initial CDR-grafted antibody; initial grafted antibody) VH: EVQLLESGGGLVQPGGSLRLSCAASGFTFSSYAMSWVRQAPGKGLEWVSTISTGGGYTYFPDSVKGRFTISRDNSKNTLYLQMNSLRAEDTAVYYCARQGDFGDWYFDVWGAGTTVTVSS VL: DVVMTQSPLSLPVTLGQPASISCRSSQSLVHSNGNTYLHWFQQRPGQSPRRLIYKVSNRFSGVPDRFSGSGSGTDFTLKISRVEAEDVGVYYCSQSTHVPWTFGGGTKLEIK
2. APE850 (antibody, V domains shown) VH: EVQLLESGGGLVQPGGSLRLSCVASGFTFSSYAMSWVRQAPGKGLEWVSTISTGGGYTYSPDSVKGRFTISRDNSKNTLYLQMNSLRAEDTAVYYCARQGDFGDWYFDVWGAGTTVTVSS VL: DVVMTQSPLSLPVTLGQPASISCRSSESLVHTNGNTYLHWYQQRPGQSPRLLIYKVSNRFSGVPDRFSGSGSGTDFTLKISRVEAEDVGVYFCSQSTRVPWTFGGGTKLEIK

[7.08, 9.01]
